Task for the reader: assign each of the following compounds its reported normalised response.
# Test system: MDA-MB-468
# procedureText: normalised response (% of control), CellTiter-Glo; higher = more viable cells (100 = DMSO, 0 = benzethonium chloride kill control)
# testParameters: incubation time: 72 h
The figure you give is taken to be in %; do not add the unit.

API: value(readout=normalised response, system=MDA-MB-468) for record Cc1ccc(-n2nc(C(C)(C)C)cc2NC(=O)Nc2ccc(OCCN3CCOCC3)c3ccccc23)cc1 [Doramapimod] (100 nM)
89.6

Could you share what normalised response was measured for N#CCNC(=O)c1ccc(-c2ccnc(Nc3ccc(N4CCOCC4)cc3)n2)cc1 [Momelotinib] (100 nM) , tested on MDA-MB-468?
90

What value of normalised response on MDA-MB-468 does Cn1c(CCCC(=O)O)nc2cc(N(CCCl)CCCl)ccc21 [Bendamustine] (100 nM) have?
106

Return normalised response measured with MDA-MB-468 given this compound: CNCc1ccc(-c2[nH]c3cc(F)cc4c3c2CCNC4=O)cc1 [Rucaparib] (100 nM)
104

Observed normalised response on MDA-MB-468 for CO[C@H]1/C=C\C=C(/C)C(=O)NC2=CC(=O)C(NCCN(C)C)=C(C[C@@H](C)C[C@H](OC)[C@H](O)[C@@H](C)/C=C(\C)[C@@H]1OC(N)=O)C2=O [Alvespimycin] (10 nM) , please.
94.8
